Measured [35S]GTPγS binding to Gαo, FLNA-binding compound as agonist 1 μM values are reported for all entries that follow.
molecular target: μ opiate receptor (MOR) (Rattus norvegicus); construct: from tissue; host or cells: striatal tissue (membrane preparation); experiment: MOR agonist activity, [35S]GTPγS binding assay using striatal membranes; type: biochemical; details: 1 μM compound, striatal membranes
PROPERTY MEASURED: [35S]GTPγS binding to Gαo, FLNA-binding compound as agonist 1 μM (%)

1) OC(COc1cccc(F)c1)CN1CCc2ccccc2C1 (stereo not shown) | 195.2
2) OC(COc1ccccc1Br)CN1CCN(CCN2CCOCC2)CC1 (stereo not shown) | 262.9
3) COc1ccc(OCC(O)Cn2ccc3ccccc32)cc1 (stereo not shown) | 334.7
4) CC1CCC(C(C)C)C(OCC(O)CN2CCSCC2)C1 (stereo not shown) | 276.0
5) CC1CCC(C(C)C)C(OCC(O)CN2CCCCC2C)C1 (stereo not shown) | 221.9
6) CC(=O)c1ccc(OCC(O)CN2CC(C)OC(C)C2)cc1 (stereo not shown) | 209.1
7) CC1CCC(C(C)C)C(OCC(O)CN2CCC(=O)CC2)C1 (stereo not shown) | 158.2
8) CC1CCC(C(C)C)C(OCC(O)CN2CCC2)C1 (stereo not shown) | 150.1
9) OC(COc1cccc(C(F)(F)F)c1)CN1CCc2ccccc2C1 (stereo not shown) | 159.2
10) CCN(CC)CC(O)COC1CC(C)CCC1C(C)C (stereo not shown) | 257.8

----------
target: μ opiate receptor (MOR) (Rattus norvegicus, UniProt P33535); construct: from tissue; host or cells: striatal tissue (membrane preparation); test: MOR agonist activity, [35S]GTPγS binding assay using striatal membranes; format: biochemical; conditions: 0.1 μM compound, striatal membranes
Sequence (P33535 whole entry): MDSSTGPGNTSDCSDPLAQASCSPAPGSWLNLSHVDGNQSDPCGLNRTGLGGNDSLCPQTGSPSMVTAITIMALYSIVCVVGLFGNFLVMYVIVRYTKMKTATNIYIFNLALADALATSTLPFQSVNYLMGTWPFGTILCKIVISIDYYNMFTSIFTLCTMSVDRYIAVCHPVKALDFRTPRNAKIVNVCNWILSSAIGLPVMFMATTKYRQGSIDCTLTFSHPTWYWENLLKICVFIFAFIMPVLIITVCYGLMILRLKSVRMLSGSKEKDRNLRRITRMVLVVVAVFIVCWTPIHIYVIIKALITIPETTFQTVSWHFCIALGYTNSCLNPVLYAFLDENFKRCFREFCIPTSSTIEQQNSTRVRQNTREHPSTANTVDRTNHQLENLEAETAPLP
Parameter [35S]GTPγS binding to Gαo, FLNA-binding compound as agonist 0.1 μM: see the listing below.
PROPERTY MEASURED: [35S]GTPγS binding to Gαo, FLNA-binding compound as agonist 0.1 μM (%)

1) COc1ccc(OCC(O)CN2CCN(Cc3ccccc3)CC2)cc1 (stereo not drawn) [Compound A0073] | 201.7
2) COc1c2c(cc3c1OCO3)CCN(CC(O)COC1CC(C)CCC1C(C)C)C2 (stereo not drawn) [Compound A0061] | 110.3
3) CC1CN(CC(O)COc2ccc(Cl)cc2)CC(C)O1 (stereo not drawn) [Compound A0047] | 233.0
4) CC1CCC(C(C)C)C(OCC(O)CN2CCc3ccccc32)C1 (stereo not drawn) [Compound A0065] | 197.6
5) OC(COc1ccccc1Br)CN1CCN(CCN2CCOCC2)CC1 (stereo not drawn) [Compound A0064] | 219.2
6) CC1CN(CC(O)COc2ccccc2Br)CC(C)O1 (stereo not drawn) [Compound A0043] | 183.3
7) CC1CN(CC(O)COC2CCCCC2)CC(C)O1 (stereo not drawn) [Compound A0017] | 161.9
8) CC1CCC(C(C)C)C(OCC(O)CN2CC(C)CC(C)C2)C1 (stereo not drawn) [Compound A0008] | 163.8
9) COc1ccc(OCC(O)Cn2ccc3ccccc32)cc1 (stereo not drawn) [Compound A0077] | 300.1

----------
molecular target: μ opiate receptor (MOR) (Rattus norvegicus); construct: from tissue; host or cells: striatal tissue (membrane preparation); assay: MOR agonist activity, [35S]GTPγS binding assay using striatal membranes; type: biochemical; conditions: 1 μM compound + 1 μM β-funaltrexamine
With a cut-off of 90%, any [35S]GTPγS binding to Gαo, FLNA-binding compound as agonist 1 μM + BFNA strictly below it is called rule met; any [35S]GTPγS binding to Gαo, FLNA-binding compound as agonist 1 μM + BFNA meeting it or above is called rule not met.

1) CC1CCC(C(C)C)C(OCC(O)CN2CCN(C)CC2)C1 (centres unmarked) | rule not met
2) COc1c2c(cc3c1OCO3)CCN(CC(O)COC1CC(C)CCC1C(C)C)C2 (centres unmarked) | rule met
3) CC1CCC(C(C)C)C(OCC(O)CN2CCC(=O)CC2)C1 (centres unmarked) | rule met
4) CC1CCN(CC(O)COC2CC(C)CCC2C(C)C)CC1 (centres unmarked) | rule met
5) CC1CCC(C(C)C)C(OCC(O)CN2CCCCCCC2)C1 (centres unmarked) | rule not met

Values compiled from patent US20100279997A1.
